biological target: High affinity choline transporter 1 (Homo sapiens) (UniProt Q9GZV3); experiment: CHT positive allosteric modulators, primary screen, cell-based, membrane potential dye, choline EC20 (AID 488977); settings: CHT-expressing cells, at 10 µM, LV-AA mutant CHT in HEK293 cells
Sequence (Q9GZV3 whole entry, looked up): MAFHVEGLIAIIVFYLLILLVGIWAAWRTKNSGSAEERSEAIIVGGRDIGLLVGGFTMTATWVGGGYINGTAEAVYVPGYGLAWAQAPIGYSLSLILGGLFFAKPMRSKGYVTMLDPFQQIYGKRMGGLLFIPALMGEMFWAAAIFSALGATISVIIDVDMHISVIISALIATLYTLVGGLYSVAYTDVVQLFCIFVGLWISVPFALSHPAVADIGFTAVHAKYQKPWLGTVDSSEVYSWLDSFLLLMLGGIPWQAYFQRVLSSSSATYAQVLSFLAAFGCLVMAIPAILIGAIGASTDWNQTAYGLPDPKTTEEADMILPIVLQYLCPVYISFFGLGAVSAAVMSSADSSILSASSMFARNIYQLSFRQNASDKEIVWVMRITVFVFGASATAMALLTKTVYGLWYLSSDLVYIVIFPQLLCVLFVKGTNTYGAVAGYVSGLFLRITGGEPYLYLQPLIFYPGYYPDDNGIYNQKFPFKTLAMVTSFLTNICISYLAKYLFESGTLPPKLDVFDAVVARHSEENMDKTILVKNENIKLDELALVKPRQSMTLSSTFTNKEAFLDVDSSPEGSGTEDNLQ
Among all 310,000 compounds or so, about 1,500 (0.48%) were called active.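 The calls were made as follows: active = initial fluorescence not abnormally high and integrated response B-score, plate-corrected, over 3 SD above library mean; inactive = the rest.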 Shown is part of a subset that was picked to be rich in actives.
Entry note: the call must match one of t = active, f = inactive

QUERY: Any idea what this test logged for COc1ccccc1C1C2=C(COC2=O)Nc2cc3c(cc21)OCO3 (stereo unspecified) ?
RESULT: f

QUERY: Param item: O=C(CSc1nnc(-c2ccccc2)o1)N1CCOCC1
RESULT: f

QUERY: Also Cc1ccc(/C=C2\CCn3c2nc2cc(C(=O)O)ccc2c3=O)c(C)c1 , if possible.
RESULT: f

QUERY: Entry COc1ccc(C2CC(=O)Nc3cc(C)c(C)cc32)c(OC)c1OC (stereo unspecified) please
RESULT: f

QUERY: What about Cc1nc2ccccc2c(=O)n1Cc1ccc([N+](=O)[O-])cc1 ?
RESULT: f

QUERY: And for CC1=CC(C)(C)N(C(=O)CSc2nccn2C)c2cc(C)ccc21 ?
RESULT: f

QUERY: Follow-up entry: CC1=CC(C)(C)N(C(=O)CSc2nnc(-c3ccccc3)o2)c2ccc(C)cc21
RESULT: t

QUERY: For Nc1nc(SCC(=O)NCCN2CCOCC2)nc2sc3c(c12)CCC3 then?
RESULT: f

QUERY: Subsequent entry: COc1ccc(S(=O)(=O)N2CCCCCC2)cc1C(=O)N(C)Cc1cccc(OC)c1OC
RESULT: f

QUERY: What about this molecule? COc1ccccc1CCC(=O)NNC(=O)c1ccncc1
RESULT: f

QUERY: Cool, now Cc1nc2ccccc2c(=O)n1CCCn1ccnc1
RESULT: t

---

target: High affinity choline transporter 1 (Homo sapiens) (UniProt Q9GZV3); assay: CHT positive allosteric modulators, primary screen, cell-based, membrane potential dye, choline EC20 (AID 488977); settings: CHT-expressing cells, at 10 µM, LV-AA mutant CHT in HEK293 cells
The campaign covered roughly 310,000 compounds. About 1,500 (0.48%) were called active.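 How the source made its calls: active means initial fluorescence not abnormally high and integrated response B-score, plate-corrected, over 3 SD above library mean; inactive means the rest.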 Only a selection was taken, and actives are over-represented in it overall.
// one of label 1 for active, label 0 for inactive, no free text

QUERY: Hey, what did the test say about CCCCN(CCCC)CC(O)Cn1c2ccccc2c(=O)c2ccccc21 (stereo not given) ?
RESULT: label 1

QUERY: Likewise for O=C(c1cc(Cl)cc(Cl)c1)N1CCC(=O)N(C(COCc2ccccc2)Cc2ccccc2)CC1 (stereo not given) ?
RESULT: label 0

QUERY: Quick one: O=C1N[C@@H](Cc2ccccc2)C(=O)N2[C@H]1C[C@]1(Br)c3ccccc3N(S(=O)(=O)c3ccccc3)[C@H]21
RESULT: label 0

QUERY: Again, but for Cc1cc2c(cc1C)[n+](C)cn2CC(O)COCC1CC=CCC1 (stereo not given)
RESULT: label 1

QUERY: Query Cc1cccn2c(=O)c3cc(C(=O)NCCN4CCOCC4)c(=N)n(Cc4cccnc4)c3nc12 next
RESULT: label 0

QUERY: And CC(C)c1ccc(S(=O)(=O)N2CCN(C(=O)CN3C(=O)NC(C)(c4ccccc4)C3=O)CC2)cc1 (stereo not given) ?
RESULT: label 0

QUERY: Same read-out for Cc1ccccc1N1CCN(CCCOc2ccc3c(C)cc(=O)oc3c2)CC1 ?
RESULT: label 0

QUERY: O=C(N/N=C/c1cc(Br)c(O)c([N+](=O)[O-])c1)C(O)(c1ccccc1)c1ccccc1 ?
RESULT: label 0

QUERY: // repeat for CC(C)CC(CO)N1CCN(C(=O)c2ccc(Cl)cc2Cl)CCC1=O (stereo not given) and report
RESULT: label 0

QUERY: Next entry: N=c1c2c3c(sc2nc2n1CCCCC2)CCCC3
RESULT: label 0

QUERY: Then what about the compound CCN1C(=O)[C@H]2[C@@H](c3ccc(-c4ccc(F)cc4)cc3)N[C@@](Cc3ccccc3)(C(=O)OC)[C@H]2C1=O ?
RESULT: label 0

QUERY: Same lookup for Cc1ccc(N2CC(C(=O)N3CCC4(CC3)CC(=O)c3ccccc3O4)CC2=O)cc1C (stereo not given) , please.
RESULT: label 0

QUERY: What would you report for CC1(C)Cc2c(sc3nc4n(c(=N)c23)CCCCC4)CO1 ?
RESULT: label 1

QUERY: Would you mind doing O=C(NCC(c1ccco1)N1CCc2ccccc2C1)c1ccccc1Cl (stereo not given) as well?
RESULT: label 0

QUERY: Also need COc1ccc(-c2cc(C(=O)N/N=C/c3cccnc3)c3ccccc3n2)c(OC)c1 , thanks.
RESULT: label 0

QUERY: Would you kindly repeat that for Cc1cc(=O)oc2ccc(OCC(=O)O)cc12 ?
RESULT: label 0

QUERY: Now the same for CC(C)CC(COCc1ccc(Cl)cc1)N1CCN(C(=O)c2ccc(C(F)(F)F)cc2)CCC1=O (stereo not given)
RESULT: label 1

QUERY: Try this compound next: Cc1cccn2c(=O)c3cc(C#N)c(=O)n(CCCN4CCOCC4)c3nc12
RESULT: label 1

QUERY: Okay, and O=Cc1ccc(OCc2cn3ccccc3n2)cc1 ?
RESULT: label 1

QUERY: Lookup O=C(NCCC1CCCCN1S(=O)(=O)c1ccc(Cl)cc1)C(=O)NCc1ccco1 (stereo not given)
RESULT: label 0

---

molecular target: High affinity choline transporter 1 (Homo sapiens); assay: CHT positive allosteric modulators, primary screen, cell-based, membrane potential dye, choline EC20 (AID 488977); details: CHT-expressing cells, at 10 µM, LV-AA mutant CHT in HEK293 cells; stronger effect = higher value
The whole screen tested about 310,000 compounds, of which about 1,500 (0.48%) were called active. The full list was thinned out, with actives kept by preference.
READOUT_NAME: B-score

Sample answers from the record:
{"TEST_SMILES": "Cc1cc(C)cc(NC(=O)COc2coc(CN3CCN(c4ccccc4)CC3)cc2=O)c1", "SYSTEM_NAME": "High affinity choline transporter 1 (Homo sapiens)", "ENDPOINT_VALUE": "inactive"}
{"TEST_SMILES": "COc1cc(C(=O)NCC(=O)NCCSc2ccc(Br)cc2)cc(OC)c1OC", "SYSTEM_NAME": "High affinity choline transporter 1 (Homo sapiens)", "ENDPOINT_VALUE": "inactive"}
{"TEST_SMILES": "O=C(c1ccccc1F)N(Cc1ccccc1)Cc1ccccc1", "SYSTEM_NAME": "High affinity choline transporter 1 (Homo sapiens)", "ENDPOINT_VALUE": "6.51 (active)"}
{"TEST_SMILES": "O=C(Nc1ccc(S(=O)(=O)N2CCCCC2)cc1)C1CCN(C(=O)c2ccc(F)cc2)CC1", "SYSTEM_NAME": "High affinity choline transporter 1 (Homo sapiens)", "ENDPOINT_VALUE": "inactive"}

QUERY: Which B-score value is on record for COc1ccc(NC(=O)CN(C)C(=O)CC2CCCCC2)cc1 ?
RESULT: inactive

---

molecular target: High affinity choline transporter 1 (Homo sapiens); assay: CHT positive allosteric modulators, primary screen, cell-based, membrane potential dye, choline EC20 (AID 488977); conditions: CHT-expressing cells, at 10 µM, LV-AA mutant CHT in HEK293 cells; stronger effect = higher value
The whole screen tested about 310,000 compounds, of which about 1,500 (0.48%) were called active. The full list was thinned out, with actives kept by preference.
READOUT_NAME: B-score

Examples with answers:
{"MOLECULE": "Cc1ccccc1NC(=O)COc1cccc2c1CCNC2=O", "B-score": "inactive"}
{"MOLECULE": "CCn1c(/C=C/Nc2ccccc2)[n+](CC)c2ccc(C(=O)OCC(F)(F)F)cc21", "B-score": "7.01 (active)"}
{"MOLECULE": "CCOC(=O)c1cn(CC)c2cc(F)c(F)cc2c1=O", "B-score": "7.03 (active)"}
{"MOLECULE": "COc1ccccc1C(=O)Nc1ccccc1C(=O)Nc1ccccc1", "B-score": "inactive"}
{"MOLECULE": "COc1ccc(C(=O)C2CCCN(C(=O)c3ccc(OC)o3)C2)c(C)c1 (stereo unspecified)", "B-score": "inactive"}

QUERY: Item under review: CN(Cc1ccccc1F)C(=O)C(Cc1ccccc1)NC(=O)c1ccccc1 (stereo unspecified) . Reported B-score?
RESULT: inactive

QUERY: Another molecule to check: OCCCNc1nc(-c2ccccc2)c2cc(Cl)ccc2n1
RESULT: inactive

QUERY: Then this molecule: CCOC(=O)c1cc2ccccc2n1CC(=O)c1ccccc1
RESULT: inactive
